Recorded pKd values for a group of binders are listed next.
# ASSAYED_TARGET: T1, soluble cynomolgus macaque CD200R1 extracellular domain (cynomolgus macaque, UniProt G7NZT0 29-266)
# T1 construct: extracellular domain; also called Cynomolgus CD200R
# T1 sequence: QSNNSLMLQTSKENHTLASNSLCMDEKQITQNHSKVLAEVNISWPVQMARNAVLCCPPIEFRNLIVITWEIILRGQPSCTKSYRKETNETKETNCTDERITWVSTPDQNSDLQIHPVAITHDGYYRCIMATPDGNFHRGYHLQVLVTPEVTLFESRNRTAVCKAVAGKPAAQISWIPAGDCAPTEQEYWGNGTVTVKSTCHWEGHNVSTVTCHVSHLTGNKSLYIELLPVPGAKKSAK
# ASSAY_PROCEDURE: SPR, captured antibody, soluble monomeric receptor injected, single cycle kinetics, 37 C
pKd: −log10 of the molar value.

>  <BINDER>
anti-CD200R antibody clone 3.10.2 (mIgG1k isotype) (antibody, V domains shown, Murine hybridoma antibody, IgG1 kappa) VH: QVQLQQPGSELVRPGASVKLSCKASGYTFTSYWMHWVKQRPGQGLEWIGNIFPGSDTTNYDEKFKSKAIMTVDISSSTVYMHLSSLTSEDSAVYYCITYTGAYWGQGTLVTVSA VL: DVQMIQSPSSLSASMGDIVTMTCQASQGTNINLHWFQQKPGKAPKLLISGGSNLEDGVPSRFSGSRYGTDFTLTISSLEDEDMATYFCLQFTYLPWTFGGGTKLDIKR

>  <pKd>
11.82

$$$$
>  <BINDER>
anti-CD200R antibody clone 7.12.2 (mIgG1k isotype) (antibody, V domains shown, Murine hybridoma antibody, IgG1 kappa) VH: QVQLQQPGSELVRPGASVKLSCKASGYTFTSYWMHWVKQRPGQGLEWIGNIYPGSGTTNYDEKFKSKATLTVDTSSSTAYMQISSLTSEDSAVYYCTTGTSTYWGQGTLVTVSA VL: DVQMIQSPSSLSASLGDIVTMTCQASQGTSINLNWFQQKPGKAPKLLIYGAVNLEDGVPSRFSGSRYGTDFTLTVSSLEDEDMATYFCLQHTYLPWTFGGGTKLEIKR

>  <pKd>
9.15

$$$$
>  <BINDER>
anti-CD200R antibody clone 21.3.1 (mIgG1k isotype) (antibody, V domains shown, Murine hybridoma antibody, IgG1 kappa) VH: QVQLQQPGSELVRPGASVKLSCKASGHTFTSYWMHWVKQRPGQGLEWIGNIYPGSGSINYDEKFKSKAKLTVDTSSRTAYMQLSSLTSEDSAVYYCLTMTGTSWGQGTLVTVSA VL: DVQMIQSPSSLSASLGDIVTMTCQASQGTPINLHWFQQKPGKAPKLLISGASNLEDGVPSRFSGSRYGTAFTLTISSLEDEDMATYFCLQFTYIPWTFGGGTKLEIKR

>  <pKd>
11.08

$$$$
